Molecular target: COX10
Experiment: pooled miR-30 sensor sort-seq; sequence = guide strand; also: reference of the scale not given here
Conditions: shRNA
parameter: sensor-assay potency score (higher = more potent)

Query: Give recorded sensor-assay potency score (higher = more potent). TAACCGTATTTGGTAACCGAGA
Reply: -1.58

Query: Give recorded sensor-assay potency score (higher = more potent). TTGTATTCACTGACTGAGCTGA
Reply: -0.0577

Query: Give recorded sensor-assay potency score (higher = more potent). TATTGAGTCTTCAATTACTGAG
Reply: -0.782

---

Molecular target: OSBP2
Experiment: pooled miR-30 sensor sort-seq; sequence = guide strand
Conditions: shRNA
parameter: sensor-assay potency score (higher = more potent)
Field format: numeric only.

Before answering, review these 3 worked examples.
TTGGAGAACACGTAGTGCGCAG -0.163
ATCTAGTACATTGTCTGCTGAG -0.399
TTGATCATAGCATTGGATGTGA 0.46

Query: Give recorded sensor-assay potency score (higher = more potent). TCTAGTACATTGTCTGCTGAGC
Reply: -0.715

Query: Give recorded sensor-assay potency score (higher = more potent). TTGCCCAGCACGAACCAGCGGC
Reply: -0.788

Query: Give recorded sensor-assay potency score (higher = more potent). TAAGTGGATGGCACCTAGCGGC
Reply: -0.606

Query: Give recorded sensor-assay potency score (higher = more potent). TAGGAGGACACAGAGAAGGCGG
Reply: -0.227

Query: Give recorded sensor-assay potency score (higher = more potent). TTGACTTTGGATGAACCCTTGG
Reply: -0.284

Query: Give recorded sensor-assay potency score (higher = more potent). TTCAGTACTAAATTGAGTGCAT
Reply: 0.314
